molecular target: 5-hydroxytryptamine receptor 2C (Homo sapiens); experiment: Binding affinity to 5HT2C receptor (unknown origin)
Sequence (P28335 whole entry): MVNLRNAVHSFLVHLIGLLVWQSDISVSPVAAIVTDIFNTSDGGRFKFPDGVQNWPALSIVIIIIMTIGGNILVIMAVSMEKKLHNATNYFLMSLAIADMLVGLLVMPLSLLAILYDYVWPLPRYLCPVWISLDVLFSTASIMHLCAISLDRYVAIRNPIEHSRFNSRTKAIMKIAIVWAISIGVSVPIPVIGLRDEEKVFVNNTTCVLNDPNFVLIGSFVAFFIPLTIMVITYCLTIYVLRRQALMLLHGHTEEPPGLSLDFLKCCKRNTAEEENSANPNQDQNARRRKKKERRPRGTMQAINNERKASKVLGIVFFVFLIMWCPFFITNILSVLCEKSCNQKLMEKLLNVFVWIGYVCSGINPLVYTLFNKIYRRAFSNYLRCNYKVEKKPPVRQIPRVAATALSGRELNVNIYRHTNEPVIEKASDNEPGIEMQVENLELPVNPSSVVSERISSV
OBSERVATION_TYPE: Ki

Using known records, supply Ki for Cc1nccc2c1C(C)(C)Nc1cc(Br)ccc1-2
> 10 µM

----------
molecular target: Sodium-dependent noradrenaline transporter (Homo sapiens, UniProt P23975)
Sequence (P23975 whole entry): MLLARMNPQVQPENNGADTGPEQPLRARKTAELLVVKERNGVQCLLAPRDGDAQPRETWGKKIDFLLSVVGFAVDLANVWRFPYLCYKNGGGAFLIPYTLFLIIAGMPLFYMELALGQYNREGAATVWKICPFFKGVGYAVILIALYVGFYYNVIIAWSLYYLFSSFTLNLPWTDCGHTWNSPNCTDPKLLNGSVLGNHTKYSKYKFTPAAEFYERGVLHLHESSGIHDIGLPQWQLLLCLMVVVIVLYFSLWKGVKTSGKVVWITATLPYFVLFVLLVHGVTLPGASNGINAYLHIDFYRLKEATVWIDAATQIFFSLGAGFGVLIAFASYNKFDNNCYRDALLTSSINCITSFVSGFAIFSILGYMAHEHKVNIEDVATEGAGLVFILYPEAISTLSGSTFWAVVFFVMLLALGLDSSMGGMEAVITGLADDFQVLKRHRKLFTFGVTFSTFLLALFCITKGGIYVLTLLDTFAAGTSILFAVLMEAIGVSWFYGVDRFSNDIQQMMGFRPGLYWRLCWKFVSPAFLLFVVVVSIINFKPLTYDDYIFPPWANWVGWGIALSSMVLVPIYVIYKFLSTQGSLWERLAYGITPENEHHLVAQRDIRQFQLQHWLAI
OBSERVATION_TYPE: Ki

For Sodium-dependent noradrenaline transporter (Homo sapiens, UniProt P23975), give the measured Ki of the entry Cc1nccc2c1C(C)(C)Nc1cc(Br)ccc1-2
> 10 µM

----------
target: 5-hydroxytryptamine receptor 1D (Homo sapiens, UniProt P28221)
Sequence (P28221 whole entry): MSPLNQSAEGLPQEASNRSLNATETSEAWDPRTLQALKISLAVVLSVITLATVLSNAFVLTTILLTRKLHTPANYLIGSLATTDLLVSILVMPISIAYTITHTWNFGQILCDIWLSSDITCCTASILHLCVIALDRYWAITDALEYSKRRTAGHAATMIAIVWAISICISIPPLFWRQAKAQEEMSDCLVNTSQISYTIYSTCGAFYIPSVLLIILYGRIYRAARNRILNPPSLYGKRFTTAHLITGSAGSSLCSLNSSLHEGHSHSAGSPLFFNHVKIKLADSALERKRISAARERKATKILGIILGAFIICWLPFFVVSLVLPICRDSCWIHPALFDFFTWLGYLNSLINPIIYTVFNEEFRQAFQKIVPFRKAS
pKi: −log10 of the molar value.
OBSERVATION_TYPE: pKi

For 5-hydroxytryptamine receptor 1D (Homo sapiens, UniProt P28221), give the measured pKi of the entry Cc1nccc2c1C(C)(C)Nc1cc(Br)ccc1-2
< 5.00
